MEASURED TARGET: DLG2_3, Q15700
PROTOCOL SUMMARY: holdup assay
Set-up: key: below the threshold = too weak to quantify, mostly under pKd 3.1 to 4
MEASUREMENT CONDITIONS: plain residues with an end cap or a label only (N-terminal biotin on a linker: ttds)
ASSAY READOUT: pKd

- BINDER: "SRPQRTQTQV [HPV67-E6, A4U7F2]"
  REPORTED MEASUREMENT: 4.52
- BINDER: "STLTIFETAL [ABCC4, O15439]"
  REPORTED MEASUREMENT: 3.98
- BINDER: "VLRLQSETSV [VANGL1, Q8TAA9]"
  REPORTED MEASUREMENT: 4.71
